# target_desc: Cannabinoid receptor 2 (Homo sapiens, UniProt P34972)
# Sequence (P34972 whole entry): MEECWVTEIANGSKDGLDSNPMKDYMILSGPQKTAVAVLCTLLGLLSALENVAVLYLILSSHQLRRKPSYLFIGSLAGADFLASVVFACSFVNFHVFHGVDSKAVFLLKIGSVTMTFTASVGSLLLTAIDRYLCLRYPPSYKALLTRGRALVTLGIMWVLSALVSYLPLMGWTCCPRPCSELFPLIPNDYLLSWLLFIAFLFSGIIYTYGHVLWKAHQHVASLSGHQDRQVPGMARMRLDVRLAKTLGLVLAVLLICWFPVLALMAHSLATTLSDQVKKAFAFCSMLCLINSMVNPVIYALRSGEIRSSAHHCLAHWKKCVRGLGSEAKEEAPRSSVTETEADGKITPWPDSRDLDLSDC
# assay_remarks: Displacement of [3H]-CP55940 from human CB2 receptor expressed in HEK293 cells after 1.5 hrs by microbeta liquid scintillation counting analysis
# Format: cell-based
# test_parameters: hek293
readout_label: Ki

CCCCCn1c2ccccc2c2cc(CN3CCNCC3)ccc21	Not Active
CC(C)(C)OC(=O)NCCCn1c2ccccc2c2cc(C(=O)N3CCS(=O)(=O)CC3)ccc21	Not Active
O=C(c1ccc2c(c1)c1ccccc1n2CCN1CCCCC1)N1CCCCC1	Not Active

----------
# target_desc: Cannabinoid receptor 1 (Rattus norvegicus)
# Sequence (P20272 whole entry): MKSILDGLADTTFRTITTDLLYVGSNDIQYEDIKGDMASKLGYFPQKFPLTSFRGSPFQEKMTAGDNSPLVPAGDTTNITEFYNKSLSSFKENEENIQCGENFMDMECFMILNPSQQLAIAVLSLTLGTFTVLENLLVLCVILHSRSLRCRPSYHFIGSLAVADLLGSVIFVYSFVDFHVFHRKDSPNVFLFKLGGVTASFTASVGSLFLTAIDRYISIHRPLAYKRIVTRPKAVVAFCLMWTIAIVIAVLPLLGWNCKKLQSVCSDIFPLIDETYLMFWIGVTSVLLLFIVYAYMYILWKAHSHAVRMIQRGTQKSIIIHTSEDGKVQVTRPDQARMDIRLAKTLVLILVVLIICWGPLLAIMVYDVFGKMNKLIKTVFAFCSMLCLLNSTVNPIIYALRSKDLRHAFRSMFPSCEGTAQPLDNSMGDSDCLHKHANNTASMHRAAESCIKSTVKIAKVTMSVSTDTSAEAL
# assay_remarks: Displacement of [3H]-CP55940 from CB1 receptor in rat brain homogenate after 1.5 hrs by microbeta liquid scintillation counting analysis
# Type: tissue-based
readout_label: Ki

Use the examples below as a reference point.
CCCCCn1c2ccccc2c2cc(C(=O)N3CC[N+](C)(C)CC3)ccc21.[I-]	Not Active
CCOC(=O)CCn1c2ccccc2c2cc(C(=O)N3CCS(=O)(=O)CC3)ccc21	Not Active
CCCCCn1c2ccccc2c2cc(C(=O)NCC3CCNCC3)ccc21	Not Active
CC(C)(C)OC(=O)NCCCn1c2ccccc2c2cc(C(=O)N3CCCCC3)ccc21	Not Active
CCCCCn1c2ccccc2c2cc(CN3CCNCC3)ccc21	Not Active

Q: For Cannabinoid receptor 1 (Rattus norvegicus), provide Ki of CCCCCn1c2ccccc2c2cc(C(=O)NCCc3ccc(Cl)cc3)ccc21 please.
Ans: Not Active

Q: For Cannabinoid receptor 1 (Rattus norvegicus), provide Ki of O=C(c1ccc2[nH]c3ccccc3c2c1)N1CCCCC1 please.
Ans: Not Active

Q: For Cannabinoid receptor 1 (Rattus norvegicus), provide Ki of CCCCCn1c2ccccc2c2cc(C(=O)NN3CCCCC3)ccc21 please.
Ans: Not Active

Q: For Cannabinoid receptor 1 (Rattus norvegicus), provide Ki of O=C(c1ccc2c(c1)c1ccccc1n2CCCN1CCCCC1)N1CCCCC1 please.
Ans: Not Active

Q: For Cannabinoid receptor 1 (Rattus norvegicus), provide Ki of NCCCn1c2ccccc2c2cc(C(=O)N3CCCCC3)ccc21 please.
Ans: Not Active

Q: For Cannabinoid receptor 1 (Rattus norvegicus), provide Ki of O=C(c1ccc2c(c1)c1ccccc1n2CCN1CCCCC1)N1CCCCC1 please.
Ans: Not Active

Q: For Cannabinoid receptor 1 (Rattus norvegicus), provide Ki of CCCCCn1c2ccccc2c2cc(C#N)ccc21 please.
Ans: Not Active

Q: For Cannabinoid receptor 1 (Rattus norvegicus), provide Ki of CCOC(=O)CCn1c2ccccc2c2cc(C(=O)N3CCN(C)CC3)ccc21 please.
Ans: Not Active

Q: For Cannabinoid receptor 1 (Rattus norvegicus), provide Ki of CC(C)(C)OC(=O)NCCCn1c2ccccc2c2cc(C(=O)N3CCS(=O)(=O)CC3)ccc21 please.
Ans: Not Active
